From: the NIST ThermoML archive (doi:10.1016/j.fluid.2018.06.013)

Measured activity coefficient, listed per entry.
# Assay Name: activity coefficient (dimensionless); of the first substance listed, at infinite dilution; xn = mol fraction of the nth substance listed
# Conditions Used: 363.15 K; 100 kPa; Liquid; Chromatography; x1 = 0
Form: value (number only, do not type unit).

>  <Compound>
CCCCCCCC [octane] + CCCC[N+]1(C)CCCC1.N#CN=C=[N-]

>  <Reported Property>
activity coefficient

>  <Observed Value>
86

$$$$

Request: For the compound c1ccncc1 [pyridine] + CCCC[N+]1(C)CCCC1.N#CN=C=[N-] , what activity coefficient is on record?
Result: 1.11

Request: For the compound Cc1ccc(C)cc1 [1,4-dimethylbenzene] + CCCC[N+]1(C)CCCC1.N#CN=C=[N-] , what activity coefficient is on record?
Result: 3.63

Request: For the compound CC(C)O [propan-2-ol] + CCCC[N+]1(C)CCCC1.N#CN=C=[N-] , what activity coefficient is on record?
Result: 0.711

Request: For the compound CCCC=O [butanal] + CCCC[N+]1(C)CCCC1.N#CN=C=[N-] , what activity coefficient is on record?
Result: 1.62

Request: For the compound CCO [ethanol] + CCCC[N+]1(C)CCCC1.N#CN=C=[N-] , what activity coefficient is on record?
Result: 0.519

###

# Assay Name: activity coefficient (dimensionless); of the first substance listed, at infinite dilution; xn = mol fraction of the nth substance listed
# Conditions Used: 323.15 K; 100 kPa; Liquid; Chromatography; x1 = 0
Measured activity coefficient, listed per entry.
Form: value (number only, do not type unit).

Record excerpt, results attached:
>  <Molecule>
CC#N [acetonitrile] + CCCC[N+]1(C)CCCC1.N#CN=C=[N-]

>  <activity coefficient>
0.668

$$$$
>  <Molecule>
C1COCCO1 [1,4-dioxane] + CCCC[N+]1(C)CCCC1.N#CN=C=[N-]

>  <activity coefficient>
0.962

$$$$
>  <Molecule>
C#CCCCCC [1-heptyne] + CCCC[N+]1(C)CCCC1.N#CN=C=[N-]

>  <activity coefficient>
5.95

$$$$
>  <Molecule>
CCC(=O)OC [methyl propanoate] + CCCC[N+]1(C)CCCC1.N#CN=C=[N-]

>  <activity coefficient>
2.09

$$$$
>  <Molecule>
CC(C)CO [2-methyl-1-propanol] + CCCC[N+]1(C)CCCC1.N#CN=C=[N-]

>  <activity coefficient>
0.835

$$$$

Request: For the molecule Cc1ccccc1C [1,2-dimethylbenzene] + CCCC[N+]1(C)CCCC1.N#CN=C=[N-] , what activity coefficient is on record?
Result: 2.75

Request: For the molecule C=CCCCC [hex-1-ene] + CCCC[N+]1(C)CCCC1.N#CN=C=[N-] , what activity coefficient is on record?
Result: 20.3

###

# Assay Name: activity coefficient (dimensionless); of the first substance listed, at infinite dilution; xn = mol fraction of the nth substance listed
# Conditions Used: 363.15 K; 100 kPa; Liquid; Chromatography; x1 = 0
Reported Property: activity coefficient

Record excerpt, results attached:
>  <Molecule>
C1=CCCCC1 [cyclohexene] + CCCC[N+]1(C)CCCC1.N#CN=C=[N-]

>  <activity coefficient>
8.48

$$$$
>  <Molecule>
CO [methanol] + CCCC[N+]1(C)CCCC1.N#CN=C=[N-]

>  <activity coefficient>
0.348

$$$$
>  <Molecule>
CCC(=O)CC [pentan-3-one] + CCCC[N+]1(C)CCCC1.N#CN=C=[N-]

>  <activity coefficient>
1.99

$$$$
>  <Molecule>
Cc1ccccc1 [toluene] + CCCC[N+]1(C)CCCC1.N#CN=C=[N-]

>  <activity coefficient>
2.43

$$$$
>  <Molecule>
CCC(C)(C)OC [2-methoxy-2-methylbutane] + CCCC[N+]1(C)CCCC1.N#CN=C=[N-]

>  <activity coefficient>
9.77

$$$$

Request: For the molecule CCCCCCCCC [nonane] + CCCC[N+]1(C)CCCC1.N#CN=C=[N-] , what activity coefficient is on record?
Result: 120

Request: For the molecule C=C(C)c1ccccc1 [(1-methylethenyl)benzene] + CCCC[N+]1(C)CCCC1.N#CN=C=[N-] , what activity coefficient is on record?
Result: 2.89

Request: For the molecule C=CCCCCCCCC [1-decene] + CCCC[N+]1(C)CCCC1.N#CN=C=[N-] , what activity coefficient is on record?
Result: 83.7

Request: For the molecule CCOC(C)(C)C [2-ethoxy-2-methylpropane] + CCCC[N+]1(C)CCCC1.N#CN=C=[N-] , what activity coefficient is on record?
Result: 16.7

Request: For the molecule CCCCCCC [heptane] + CCCC[N+]1(C)CCCC1.N#CN=C=[N-] , what activity coefficient is on record?
Result: 60.2

Request: For the molecule CCCC(C)=O [pentan-2-one] + CCCC[N+]1(C)CCCC1.N#CN=C=[N-] , what activity coefficient is on record?
Result: 1.96

###

Measured activity coefficient, listed per entry.
# Assay Name: activity coefficient (dimensionless); of the first substance listed, at infinite dilution; xn = mol fraction of the nth substance listed
# Conditions Used: 363.15 K; 100 kPa; Liquid; Chromatography; x1 = 0
Form: value (number only, do not type unit).

Record excerpt, results attached:
>  <Compound>
CCC[N+](=O)[O-] [1-nitropropane] + CCCC[N+]1(C)CCCC1.N#CN=C=[N-]

>  <activity coefficient>
0.827

$$$$
>  <Compound>
C1COCCO1 [1,4-dioxane] + CCCC[N+]1(C)CCCC1.N#CN=C=[N-]

>  <activity coefficient>
1.13

$$$$

Alright, here's another compound for you.
Request: For the compound C=CCCCCC [1-heptene] + CCCC[N+]1(C)CCCC1.N#CN=C=[N-] , what activity coefficient is on record?
Result: 27.8

###

Measured activity coefficient, listed per entry.
# Assay Name: activity coefficient (dimensionless); of the first substance listed, at infinite dilution; xn = mol fraction of the nth substance listed
# Conditions Used: 373.15 K; 100 kPa; Liquid; Chromatography; x1 = 0

Record excerpt, results attached:
>  <Compound>
CCCCCCCC [octane] + CCCC[N+]1(C)CCCC1.N#CN=C=[N-]

>  <Reported Property>
activity coefficient

>  <Observed Value>
81

$$$$
>  <Compound>
CCC[N+](=O)[O-] [1-nitropropane] + CCCC[N+]1(C)CCCC1.N#CN=C=[N-]

>  <Reported Property>
activity coefficient

>  <Observed Value>
0.838

$$$$
>  <Compound>
CO [methanol] + CCCC[N+]1(C)CCCC1.N#CN=C=[N-]

>  <Reported Property>
activity coefficient

>  <Observed Value>
0.353

$$$$

Request: For the compound CCCOCCC [dipropyl ether] + CCCC[N+]1(C)CCCC1.N#CN=C=[N-] , what activity coefficient is on record?
Result: 16.6

Request: For the compound C=CCCCC [hex-1-ene] + CCCC[N+]1(C)CCCC1.N#CN=C=[N-] , what activity coefficient is on record?
Result: 18.6

Request: For the compound CCOC(C)(C)C [2-ethoxy-2-methylpropane] + CCCC[N+]1(C)CCCC1.N#CN=C=[N-] , what activity coefficient is on record?
Result: 16.1

Request: For the compound Cc1ccc(C)cc1 [1,4-dimethylbenzene] + CCCC[N+]1(C)CCCC1.N#CN=C=[N-] , what activity coefficient is on record?
Result: 3.73

Request: For the compound Cc1ccccc1 [toluene] + CCCC[N+]1(C)CCCC1.N#CN=C=[N-] , what activity coefficient is on record?
Result: 2.48

Request: For the compound CCCC=O [butanal] + CCCC[N+]1(C)CCCC1.N#CN=C=[N-] , what activity coefficient is on record?
Result: 1.67

###

# Assay Name: activity coefficient (dimensionless); of the first substance listed, at infinite dilution; xn = mol fraction of the nth substance listed
# Conditions Used: 363.15 K; 100 kPa; Liquid; Chromatography; x1 = 0
Measured activity coefficient, listed per entry.
Form: value (number only, do not type unit).

>  <Molecule>
C#CCCCCC [1-heptyne] + CCCC[N+]1(C)CCCC1.N#CN=C=[N-]

>  <activity coefficient>
6.76

$$$$
>  <Molecule>
Cc1ccccc1C [1,2-dimethylbenzene] + CCCC[N+]1(C)CCCC1.N#CN=C=[N-]

>  <activity coefficient>
3.1

$$$$
>  <Molecule>
CCCO [propan-1-ol] + CCCC[N+]1(C)CCCC1.N#CN=C=[N-]

>  <activity coefficient>
0.665

$$$$
>  <Molecule>
CCOC(C)=O [ethyl acetate] + CCCC[N+]1(C)CCCC1.N#CN=C=[N-]

>  <activity coefficient>
2.57

$$$$

Request: For the molecule CCc1ccccc1 [ethylbenzene] + CCCC[N+]1(C)CCCC1.N#CN=C=[N-] , what activity coefficient is on record?
Result: 3.7

Request: For the molecule CC(C)CO [2-methyl-1-propanol] + CCCC[N+]1(C)CCCC1.N#CN=C=[N-] , what activity coefficient is on record?
Result: 0.786

Request: For the molecule CC#N [acetonitrile] + CCCC[N+]1(C)CCCC1.N#CN=C=[N-] , what activity coefficient is on record?
Result: 0.72

Request: For the molecule C=CCCCC [hex-1-ene] + CCCC[N+]1(C)CCCC1.N#CN=C=[N-] , what activity coefficient is on record?
Result: 18.4

Request: For the molecule CCCCO [butan-1-ol] + CCCC[N+]1(C)CCCC1.N#CN=C=[N-] , what activity coefficient is on record?
Result: 0.836
